Test system: LoVo cells
Experiment: LoVo cell proliferation assay (intracellular ATP content, CellTiter-Glo)
Format: cell-based
Settings: LoVo human colon cancer cells, 3 days incubation
PROPERTY: Maximum inhibition (%) of LoVo cell proliferation
Answers are plain numbers, in %.

[
  {
    "COMPOUND": "C[C@@H]1COCCN1c1cc(C(C)(C)C#N)c2[nH]nc(-c3cc[nH]n3)c2n1 [Example 6]",
    "UNIT ANNOTATION": "%",
    "OBSERVED VALUE": 95
  },
  {
    "COMPOUND": "C[C@@H]1COCCN1c1cc(C(C)(C)O)c2c(n1)c(-c1cc[nH]n1)nn2C [Comparative Example 1, reference compound]",
    "UNIT ANNOTATION": "%",
    "OBSERVED VALUE": 92
  },
  {
    "COMPOUND": "C[C@@H]1COCCN1c1cc(C2(C#N)CC2)c2c(n1)c(-c1cc[nH]n1)nn2C [Example 2]",
    "UNIT ANNOTATION": "%",
    "OBSERVED VALUE": 90
  },
  {
    "COMPOUND": "CCn1nc(-c2cc[nH]n2)c2nc(N3CCOC[C@H]3C)cc(C(C)(C)C#N)c21 [Example 4]",
    "UNIT ANNOTATION": "%",
    "OBSERVED VALUE": 89
  }
]

For every item below, please supply its Maximum inhibition (%) of LoVo cell proliferation.
1. C[C@@H]1COCCN1c1cc(-c2ccnn2C)c2c(n1)c(-c1cc[nH]n1)nn2C [Example 3]
2. CCn1nc(-c2cc[nH]n2)c2nc(N3CCOC[C@H]3C)cc(C3(C#N)CC3)c21 [Example 5]

result:
87
93

* * *

Would you mind telling me the reported CL/F of each entry?
Assay: Pharmacokinetic study in rats after intragastric administration
Type: in vivo
Conditions: both sexes, Sprague-Dawley (SD), rat, plasma, po, 2 mg/kg, read-out: Clearance CL/F
Please answer in the form of a number followed by its unit of measurement.

Please state, for each entry, its recorded CL/F.
1. C[C@@H]1COCCN1c1cc(-c2ccnn2C)c2c(n1)c(-c1cc[nH]n1)nn2C
2. C[C@@H]1COCCN1c1cc(C2(C#N)CC2)c2c(n1)c(-c1cc[nH]n1)nn2C

result:
1. 13.1 mL/min/kg
2. 51.7 mL/min/kg

* * *

Test: Pharmacokinetic study in rats after intragastric administration
Type: in vivo
Settings: both sexes, Sprague-Dawley (SD), rat, plasma, po, 2 mg/kg, read-out: Apparent volume of distribution Vz/F
What Vd/F was measured for each of the following?
Numbers only, in L/kg.

[
  {
    "SMILES REPR": "C[C@@H]1COCCN1c1cc(-c2ccnn2C)c2c(n1)c(-c1cc[nH]n1)nn2C",
    "UNIT ANNOTATION": "L/kg",
    "Vd/F": 2.44
  }
]

Now for the compound whose Vd/F we want.
query: What value of measured Vd/F is listed for C[C@@H]1COCCN1c1cc(C2(C#N)CC2)c2c(n1)c(-c1cc[nH]n1)nn2C ?
result: 7.8
